Measured EC50, listed per entry.
system: KB; assay: Cytotoxicity against human KB cells; assay type: functional; conditions: read-out: ED50 (the source's name)

compound: C=C1C(=O)O[C@@H]2/C=C(\C)[C@H](O)C/C=C(\C)CC[C@@H]12 [TAMAULIPIN B]
EC50: 10.5 µM
//
compound: C=C1C(=O)O[C@H]2[C@H]1[C@H](OC(=O)/C(C)=C/C)C[C@]1(CO1)[C@@H]1[C@H](O)C=C(C)[C@]21O [EUPAROTIN]
EC50: 0.56 µM
//
compound: C=C1C(=O)O[C@@H]2/C=C(\CO)CC/C=C(\C)C[C@H](O)[C@@H]12 [SALONITENOLIDE]
EC50: 9.1 µM
//
compound: C=C1C(=O)O[C@@H]2/C=C(\C)CC/C=C(/C)C[C@@H](OC(=O)/C(=C/CO)CO)[C@@H]12 [EUPATORIOPICRIN]
EC50: 3.3 µM
//
compound: C=C[C@@]12COC(=O)C(=C)[C@@H]1[C@H]1OC(=O)C(=C)[C@@H]1[C@@H](OC(C)=O)C2 [VERNOLEPIN ACETATE]
EC50: 8.49 µM
//
compound: C=C1C(=O)O[C@@H]2C[C@@H](C)[C@@H]3C=CC(=O)[C@@]3(C)[C@@H](O)[C@H]12 [HELENALIN]
EC50: 0.76 µM
//
compound: C=C1C(=O)O[C@H]2C[C@@]3(C)O[C@@H]3CC/C(C(=O)OC)=C\C[C@H]12 [HIRUSUTOLIDE]
EC50: 7 µM
//
compound: C=C1C(=O)O[C@@H]2/C=C(\C)CC/C=C(\C)C[C@@H](O)[C@@H]12 [EUPATOLIDE]
EC50: 5 µM
//
compound: C=C1C(=O)O[C@H]2[C@H]1[C@H](OC(=O)/C(C)=C\C)CC(=C)[C@@H]1[C@H](O)[C@H]3O[C@@]3(C)[C@@]12O [EUPATUNDIN]
EC50: 1.04 µM
//
compound: C=C1C(=O)O[C@@H]2/C=C(\C)C[C@H](O)/C=C(\C)CC[C@@H]12 [TAMAULIPIN A]
EC50: 5.08 µM
//
compound: C=C1C(=O)O[C@@H]2/C=C(\C)CC/C=C(\C)CC[C@@H]12 [COSTUNOLIDE]
EC50: 2.46 µM
//
compound: C=C1C(=O)O[C@@H]2/C=C(/C)[C@@H](OC(C)=O)C[C@H](O)/C(C)=C\[C@@H](OC(=O)[C@]3(C)O[C@@H]3C)[C@@H]12 [EUPACUNOXIN]
EC50: 5 µM
//
compound: C=C(C)C(=O)O[C@H]1CC2=C[C@@H](C[C@@]3(C)O[C@@H]3[C@H]3OC(=O)C(=C)[C@@H]31)OC2=O [ELEPHANTOPIN]
EC50: 2.51 µM

---

system: KB; test: Cytotoxicity against human KB cells; format: functional; conditions: read-out: ED50 (the source's name)
pEC50: −log10 of the molar value.

compound: C=C1C(=O)O[C@H]2[C@H]1[C@H](OC(=O)/C(C)=C\C)C[C@]1(CO1)[C@@H]1[C@H](O)[C@H]3O[C@@]3(C)[C@]21O [EUPATOROXIN]
pEC50: 5.15
--
compound: C=C1C(=O)O[C@H]2C[C@@H](C)[C@@H]3C=CC(=O)[C@@]3(C)[C@H](OC(C)=O)[C@H]12 [LINIFOLIN A]
pEC50: 5.70
--
compound: C=C1C(=O)O[C@H]2C[C@@H](C)[C@@H]3C=CC(=O)[C@@]3(C)C[C@H]12 [AROMATICIN]
pEC50: 5.86
--
compound: C=C1C(=O)O[C@H]2CC3=C[C@@H](C[C@]4(C)O[C@@H]4[C@@H](O)[C@H]12)OC3=O [ELEPHANTOL]
pEC50: 3.91
--
compound: C=C[C@@]12COC(=O)C(=C)[C@@H]1[C@H]1OC(=O)C(=C)[C@@H]1[C@@H](OC(=O)C(=C)C)C2 [VERNOLEPIN METHACRYLATE]
pEC50: 5.91
--
compound: C=C1C(=O)O[C@@H]2/C=C(\C)[C@@H](OC(C)=O)C/C=C(\C)C(OC(=O)[C@]3(C)O[C@@H]3C)C(O)[C@@H]12 (stereo partly specified) [EUPATOCUNOXIN]
pEC50: 5.39
